// provenance: ChEMBL document CHEMBL1137648

assay: Cytotoxicity against HFF cells after 7 days by neutral red assay; type: cell-based; conditions: human
metric name: CC50 at 168 h

[[record]]
mol = "Nc1ccn(C[C@@H](CO)OCP(=O)(O)O)c(=O)n1.O.O"
metric_name = "CC50 at 168 h"
measured_value = "> 317 µM"

[[record]]
mol = "O=C(NN1C(=O)[C@@H]2[C@@H]3C=C[C@@H]([C@H]4C[C@@H]34)[C@@H]2C1=O)c1ccc(C(F)(F)F)cc1"
metric_name = "CC50 at 168 h"
measured_value = "> 100 µM"

[[record]]
mol = "CCCCCCCCCCCCCCCCOCCCOP(=O)(O)CO[C@H](CO)Cn1ccc(N)nc1=O"
metric_name = "CC50 at 168 h"
measured_value = "42 µM"


====

test system: Variola virus; assay: microbe, parasite or virus in culture; details: HFF, 168 h
pEC50: −log10 of the molar value.
metric name: pEC50

[[record]]
compound = "O=C(NN1C(=O)[C@@H]2[C@@H]3C=C[C@@H]([C@H]4C[C@@H]34)[C@@H]2C1=O)c1ccc(C(F)(F)F)cc1 [TECOVIRIMAT]"
system = "Variola virus"
measured_value = "≥ 7.15"


====

experiment: Selectivity index, ratio CC50 for HFF cells to EC50 for Vaccinia virus WR; assay type: toxicity, cell-based; conditions: human, read-out: Ratio CC50/EC50
Each entry below carries its reported selectivity ratio.
metric name: selectivity ratio

[[record]]
mol = "CCCCCCCCCCCCCCCCOCCCOP(=O)(O)CO[C@H](CO)Cn1ccc(N)nc1=O"
measured_value = 323

[[record]]
mol = "O=C(NN1C(=O)[C@@H]2[C@@H]3C=C[C@@H]([C@H]4C[C@@H]34)[C@@H]2C1=O)c1ccc(C(F)(F)F)cc1"
measured_value = "> 1000"

[[record]]
mol = "Nc1ccn(C[C@@H](CO)OCP(=O)(O)O)c(=O)n1.O.O"
measured_value = "≥ 9.6"

